measured.on: Opioid receptors; mu & kappa (Homo sapiens) (UniProt P41145+P35372)
Sequence (P35372 whole entry, looked up): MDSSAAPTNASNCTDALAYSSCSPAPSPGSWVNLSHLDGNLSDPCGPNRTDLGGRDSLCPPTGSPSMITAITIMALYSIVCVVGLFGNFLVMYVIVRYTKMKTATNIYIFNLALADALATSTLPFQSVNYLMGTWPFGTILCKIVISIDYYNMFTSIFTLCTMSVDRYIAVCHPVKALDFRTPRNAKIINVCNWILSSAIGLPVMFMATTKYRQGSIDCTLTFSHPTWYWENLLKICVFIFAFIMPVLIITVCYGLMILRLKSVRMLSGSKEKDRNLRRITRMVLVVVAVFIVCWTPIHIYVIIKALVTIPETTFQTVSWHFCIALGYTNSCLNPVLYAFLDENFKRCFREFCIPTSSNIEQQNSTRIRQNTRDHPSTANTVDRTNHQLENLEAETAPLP
Sequence (P41145 whole entry, looked up): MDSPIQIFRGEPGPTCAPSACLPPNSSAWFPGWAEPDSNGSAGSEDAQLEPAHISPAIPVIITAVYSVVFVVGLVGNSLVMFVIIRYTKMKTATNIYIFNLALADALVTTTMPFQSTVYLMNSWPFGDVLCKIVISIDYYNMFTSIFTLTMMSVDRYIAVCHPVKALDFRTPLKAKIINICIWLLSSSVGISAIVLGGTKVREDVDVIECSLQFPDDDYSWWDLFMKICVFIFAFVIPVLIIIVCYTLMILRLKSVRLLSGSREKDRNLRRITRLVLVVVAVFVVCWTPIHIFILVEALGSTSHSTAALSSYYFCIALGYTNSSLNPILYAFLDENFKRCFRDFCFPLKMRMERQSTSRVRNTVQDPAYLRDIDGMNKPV
measurement.description: Antagonistic activity at mu/kappa opioid receptor expressed in HEK293 cells co-transfected with chimeric G-protein delta 6-Gqi4-myr assessed as inhibition of U69593-induced calcium release at 1 uM
Type: functional, cell-based
Active and inactive are the calls of the source. No cut-off for these calls is given here.

input.smiles	Activity
N=C(NCCNC(=O)CNC(=O)CNC(=O)CCC(=O)NCC(=O)NCC(=O)N[C@H]1C[C@@H]2Oc3c(O)ccc4c3[C@@]23CCN(CC2CC2)[C@H](C4)[C@]3(O)C1)Nc1ccc2[nH]c3c(c2c1)C[C@@]1(O)[C@H]2Cc4ccc(O)c5c4[C@@]1(CCN2CC1CC1)[C@H]3O5	Active
N=C(NCCCCNC(=O)CNC(=O)CNC(=O)CCC(=O)NCC(=O)NCC(=O)N[C@H]1C[C@@H]2Oc3c(O)ccc4c3[C@@]23CCN(CC2CC2)[C@H](C4)[C@]3(O)C1)Nc1ccc2[nH]c3c(c2c1)C[C@@]1(O)[C@H]2Cc4ccc(O)c5c4[C@@]1(CCN2CC1CC1)[C@H]3O5	Active
N=C(NCCCCCNC(=O)CNC(=O)CNC(=O)CCC(=O)NCC(=O)NCC(=O)N[C@H]1C[C@@H]2Oc3c(O)ccc4c3[C@@]23CCN(CC2CC2)[C@H](C4)[C@]3(O)C1)Nc1ccc2[nH]c3c(c2c1)C[C@@]1(O)[C@H]2Cc4ccc(O)c5c4[C@@]1(CCN2CC1CC1)[C@H]3O5	Active
N=C(NCCCNC(=O)CNC(=O)CNC(=O)CCC(=O)NCC(=O)NCC(=O)N[C@H]1C[C@@H]2Oc3c(O)ccc4c3[C@@]23CCN(CC2CC2)[C@H](C4)[C@]3(O)C1)Nc1ccc2[nH]c3c(c2c1)C[C@@]1(O)[C@H]2Cc4ccc(O)c5c4[C@@]1(CCN2CC1CC1)[C@H]3O5	Active
